- Tested on: HCC1007-BL
- Procedure summary: IC50 in leukemia cell lines
- Format: cell-based
- Run conditions: Normal B-Lymphoblast
Reported endpoint: IC50 (nM)

Compound: CCn1cc(/C=C2\Oc3cc(OCC#N)ccc3C2=O)c2cc(OC)ccc21 [Aurone 4a]
Measured on: HCC1007-BL
Observed measurement: 1380

###

- Tested on: CCRF-CEM
- Procedure summary: IC50 in leukemia cell lines
- Type: cell-based
- Run conditions: Homo sapiens, T-ALL

Compound: CCn1cc(/C=C2\Oc3cc(OCC#N)ccc3C2=O)c2cc(OC)ccc21 [Aurone 4a]
IC50 [nM]: 244

###

- System: MOLT-4
- Procedure summary: IC50 in leukemia cell lines
- Assay type: cell-based
- Run conditions: Homo sapiens; Molt-4, T-ALL

Molecule: CCn1cc(/C=C2\Oc3cc(OCC#N)ccc3C2=O)c2cc(OC)ccc21 [Aurone 4a]
IC50, nM: 241

###

- Tested on: PC-3 cells
- Procedure summary: Proliferation inhibition assay, PC-3
- Format: cell-based
- Run conditions: Homo sapiens, PC-3; 10 μM; Table 1
Recorded inhibition at 10 µM for the following compounds

Compound: O=C1/C(=C/c2c[nH]c3ccccc23)Oc2cc(O)ccc21 [Aurone 3i]
inhibition at 10 µM [%]: 20

Compound: O=C1/C(=C/c2cccnc2)Oc2cc(O)ccc21 [Aurone 3b]
inhibition at 10 µM [%]: 0

Compound: O=C1/C(=C/c2ccc(N3CCOCC3)cc2)Oc2cc(O)ccc21 [Aurone 2b]
inhibition at 10 µM [%]: 7.8

Compound: O=C1/C(=C/c2ccccn2)Oc2cc(O)ccc21 [Aurone 3a]
inhibition at 10 µM [%]: 8.8

Compound: COc1cccc2ccc(/C=C3\Oc4cc(O)ccc4C3=O)nc12 [Aurone 3g]
inhibition at 10 µM [%]: 97

Compound: O=C1/C(=C/c2ccnc3ccccc23)Oc2cc(O)ccc21 [Aurone 3h]
inhibition at 10 µM [%]: 63

Compound: COc1ccc2c(c1)c(/C=C1\Oc3cc(O)ccc3C1=O)cn2C [Aurone 3k]
inhibition at 10 µM [%]: 35

Compound: COc1ccc2nc(/C=C3\Oc4cc(O)ccc4C3=O)ccc2c1 [Aurone 3f]
inhibition at 10 µM [%]: 8.4

Compound: CCn1cc(/C=C2\Oc3cc(O)ccc3C2=O)c2cc(OC)ccc21 [Aurone 3l]
inhibition at 10 µM [%]: 69

Compound: Cn1cc(/C=C2\Oc3cc(O)ccc3C2=O)c2ccccc21 [Aurone 3j]
inhibition at 10 µM [%]: 41

Compound: O=C1/C(=C/c2nccc3ccccc23)Oc2cc(O)ccc21 [Aurone 3d]
inhibition at 10 µM [%]: 88

Compound: O=C1/C(=C/c2ccc(N3CCCC3)cc2)Oc2cc(O)ccc21 [Aurone 2a]
inhibition at 10 µM [%]: 95

Compound: O=C1/C(=C/c2ccc3ccccc3n2)Oc2cc(O)ccc21 [Aurone 3e]
inhibition at 10 µM [%]: 99

###

Structures can show the parent of a compound that is named as a salt.

Compound: O=C1/C(=C/c2ccc(N3CCOCC3)cc2)Oc2cc(O)ccc21 [Aurone 2b]
melting point: > 220 °C

Compound: O=C1/C(=C/c2cccnc2)Oc2cc(O)ccc21 [Aurone 3b]
melting point: 255 to 257 °C

Compound: CCn1cc(/C=C2\Oc3cc(OCc4c(Cl)cccc4Cl)ccc3C2=O)c2ccccc21 [Aurone 4q]
melting point: 213 to 215 °C

Compound: Cn1cc(/C=C2\Oc3cc(OCc4c(Cl)cccc4Cl)ccc3C2=O)c2ccccc21 [Aurone 4g]
melting point: 247 to 249 °C

Compound: Cn1cc(/C=C2\Oc3cc(OCc4ccccc4F)ccc3C2=O)c2ccccc21 [Aurone 4d]
melting point: 241 to 243 °C

Compound: O=C1/C(=C/c2ccc(N3CCSCC3)cc2)Oc2cc(O)ccc21 [Aurone 2d]
melting point: > 220 °C

Compound: CN1CCN(c2ccc(/C=C3\Oc4cc(O)ccc4C3=O)cc2)CC1 (as salt: hydrochloride)
melting point: > 220 °C

Compound: CCn1cc(/C=C2\Oc3cc(OCc4c(F)cccc4Cl)ccc3C2=O)c2ccccc21 [Aurone 4p]
melting point: 198 to 200 °C

Compound: Cn1cc(/C=C2\Oc3cc(OCc4c(F)cccc4Cl)ccc3C2=O)c2ccccc21 [Aurone 4h]
melting point: 225 to 227 °C

Compound: O=C1/C(=C/c2nccc3ccccc23)Oc2cc(O)ccc21 [Aurone 3d]
melting point: > 220 °C

Compound: O=C1/C(=C/c2ccnc3ccccc23)Oc2cc(O)ccc21 [Aurone 3h]
melting point: 278 to 280 °C

Compound: Cn1cc(/C=C2\Oc3cc(O)ccc3C2=O)c2ccccc21 [Aurone 3j]
melting point: 272 to 274 °C

Compound: CN(C)c1ccc(/C=C2\Oc3cc(O)ccc3C2=O)c(Cl)c1 [Aurone 2e]
melting point: > 220 °C

Compound: O=C1/C(=C/c2ccc3ccccc3n2)Oc2cc(O)ccc21 [Aurone 3e]
melting point: 249 to 251 °C

Compound: COc1cccc2ccc(/C=C3\Oc4cc(O)ccc4C3=O)nc12 [Aurone 3g]
melting point: 250 to 252 °C

Compound: Cc1c(OCc2c(Cl)cccc2Cl)ccc2c1O/C(=C\c1cn(C)c3ccccc13)C2=O [Aurone 4i]
melting point: 232 to 234 °C

Compound: COc1ccc2c(c1)c(/C=C1\Oc3cc(OCc4c(Cl)cccc4Cl)ccc3C1=O)cn2C [Aurone 4l]
melting point: 233 to 235 °C

Compound: Cc1c(O)ccc2c1O/C(=C\c1cn(C)c3ccccc13)C2=O [Aurone 3n]
melting point: 293 to 295 °C

Compound: CCN(CC)c1ccc(/C=C2\Oc3cc(O)ccc3C2=O)c(OC)c1 [Aurone 2f]
melting point: > 220 °C

Compound: O=C1/C(=C/c2ccccn2)Oc2cc(O)ccc21 [Aurone 3a]
melting point: 246 to 248 °C

Compound: O=C1/C(=C/c2ccc(N3CCCC3)cc2)Oc2cc(O)ccc21 [Aurone 2a]
melting point: > 220 °C

Compound: COc1ccc2nc(/C=C3\Oc4cc(O)ccc4C3=O)ccc2c1 [Aurone 3f]
melting point: 269 to 271 °C

Compound: COc1ccc2c(c1)c(/C=C1\Oc3c(ccc(OCc4c(Cl)cccc4Cl)c3C)C1=O)cn2C [Aurone 4m]
melting point: 241 to 243 °C

Compound: COc1ccc2c(c1)c(/C=C1\Oc3c(ccc(O)c3C)C1=O)cn2C [Aurone 3o]
melting point: 297 to 299 °C

Compound: CCn1cc(/C=C2\Oc3cc(O)ccc3C2=O)c2ccccc21 [Aurone 3m]
melting point: 278 to 280 °C

Compound: CN(C)c1ccc(/C=C2\Oc3cc(OCc4ccccc4Cl)ccc3C2=O)c(Cl)c1 [Aurone 4s]
melting point: > 220 °C

Compound: CCn1cc(/C=C2\Oc3cc(O)ccc3C2=O)c2cc(OC)ccc21 [Aurone 3l]
melting point: 265 to 267 °C

Compound: COc1ccc2c(c1)c(/C=C1\Oc3cc(OCc4ccc(F)cc4Cl)ccc3C1=O)cn2C [Aurone 4j]
melting point: 184 to 186 °C

Compound: Cn1cc(/C=C2\Oc3cc(OCc4c(F)cccc4F)ccc3C2=O)c2ccccc21 [Aurone 4f]
melting point: > 220 °C

Compound: COc1ccc2c(c1)c(/C=C1\Oc3cc(OCc4c(F)cccc4Cl)ccc3C1=O)cn2C [Aurone 4k]
melting point: 200 to 202 °C

Compound: Cn1cc(/C=C2\Oc3cc(OCc4ccccc4Cl)ccc3C2=O)c2ccccc21 [Aurone 4e]
melting point: 206 to 208 °C

Compound: COc1ccc2c(c1)c(/C=C1\Oc3cc(O)ccc3C1=O)cn2C [Aurone 3k]
melting point: 301 to 303 °C

Compound: CCn1cc(/C=C2\Oc3cc(OCc4c(Cl)cccc4Cl)ccc3C2=O)c2cc(OC)ccc21 [Aurone 4o]
melting point: 211 to 213 °C

Compound: CCN(CC)c1ccc(/C=C2\Oc3cc(OCc4cc(F)ccc4F)ccc3C2=O)c(OC)c1 [Aurone 4t]
melting point: 184 to 186 °C

Compound: O=C1/C(=C/c2c[nH]c3ccccc23)Oc2cc(O)ccc21 [Aurone 3i]
melting point: 280 to 282 °C

Each recorded value in this set is attributed to patent US20200354348A1.
